Data credit: patent US20150259419A1

- EXPERIMENTAL_SYSTEM: T1, human MCAM, full length, expressed on transfected cells (human, UniProt P43121 24-646)
- T1 construct: CHO cells transfected with the full length human MCAM gene; also called hMCAM; CD146
- T1 chain: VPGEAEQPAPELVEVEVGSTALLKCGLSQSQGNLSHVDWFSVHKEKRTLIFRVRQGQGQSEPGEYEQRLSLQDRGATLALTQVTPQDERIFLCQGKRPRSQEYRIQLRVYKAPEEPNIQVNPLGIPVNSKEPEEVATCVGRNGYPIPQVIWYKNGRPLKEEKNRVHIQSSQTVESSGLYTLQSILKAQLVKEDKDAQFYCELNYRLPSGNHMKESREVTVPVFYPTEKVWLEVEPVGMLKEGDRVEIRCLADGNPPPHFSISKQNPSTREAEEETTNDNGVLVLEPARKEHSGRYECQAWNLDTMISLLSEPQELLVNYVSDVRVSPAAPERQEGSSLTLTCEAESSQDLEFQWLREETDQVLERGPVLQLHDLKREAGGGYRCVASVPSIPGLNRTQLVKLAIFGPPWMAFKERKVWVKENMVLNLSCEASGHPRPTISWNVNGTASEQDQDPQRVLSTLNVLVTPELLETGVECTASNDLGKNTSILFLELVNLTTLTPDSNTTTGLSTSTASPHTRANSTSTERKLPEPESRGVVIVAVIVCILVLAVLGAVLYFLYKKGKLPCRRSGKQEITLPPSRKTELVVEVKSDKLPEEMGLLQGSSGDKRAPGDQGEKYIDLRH
- EXPERIMENTAL_PROTOCOL: laminin/FACS assay: blocking of laminin 411 binding to hMCAM expressing CHO cells; relative to rodent 2120
READOUT_TYPE: Fold over rodent (Blocking, Expt#1) (fold)

INSERT INTO assay_data (binder, endpoint_value) VALUES
  ('h2120_VH4 + h2120_VL3 (antibody, human IgG1, V domains shown, also called N-Q deamidate VH + conservative VL) VH: QVTLKESGPVLVKPTETLTLTCTVSGFSLTSQGVSWVRQPPGKALEWIAAISSGGTTYYNSAFKSRLTISRDTSKSQVVLTMTNMDPVDTATYYCARRYGYGWYFDFWGQGTLVTVSS VL: DIQMTQSPSSLSASVGDRVTINCKASQNIYNSLAWYQQKPGKAPKVLIFNANSLQTGIPSRFSGSGSGTDFTLTISSLQPEDFATYYCQQFYSGYTFGQGTKLEIK', 3.8);
